Assay: Stability test (purity and XRPD pattern after 30 days storage)
Assay type: physicochemical
Details: day 30 under 92.5% RH
observed_property: purity
Respond numerically, and do not add a unit to the figure.

**Q:** Retrieve purity measured for Cc1cc(Nc2cc(C)[nH]n2)nc(N2CC3CCC(C2)N3C(=O)c2ccc(-n3cc(F)cn3)nn2)n1 [amorphous form, reference compound] and print it.
**A:** 95.23

**Q:** Retrieve purity measured for Cc1cc(Nc2cc(C)[nH]n2)nc(N2CC3CCC(C2)N3C(=O)c2ccc(-n3cc(F)cn3)nn2)n1 [crystal form E] and print it.
**A:** 99.50

**Q:** Retrieve purity measured for Cc1cc(Nc2cc(C)[nH]n2)nc(N2CC3CCC(C2)N3C(=O)c2ccc(-n3cc(F)cn3)nn2)n1 [crystal form D] and print it.
**A:** 99.01

**Q:** Retrieve purity measured for Cc1cc(Nc2cc(C)[nH]n2)nc(N2CC3CCC(C2)N3C(=O)c2ccc(-n3cc(F)cn3)nn2)n1 [crystal form A] and print it.
**A:** 99.48

**Q:** Retrieve purity measured for Cc1cc(Nc2cc(C)[nH]n2)nc(N2CC3CCC(C2)N3C(=O)c2ccc(-n3cc(F)cn3)nn2)n1 [crystal form C] and print it.
**A:** 99.08

**Q:** Retrieve purity measured for Cc1cc(Nc2cc(C)[nH]n2)nc(N2CC3CCC(C2)N3C(=O)c2ccc(-n3cc(F)cn3)nn2)n1 [crystal form B] and print it.
**A:** 99.23
